Reported kon by item:
Target: T1, human 5T4-His protein (human, UniProt Q13641 32-355)
T1 construct: also called recombinant 5T4 protein (human 5T4-his tag); human 5T4 protein; not shown: His tag
T1 sequence (looked up): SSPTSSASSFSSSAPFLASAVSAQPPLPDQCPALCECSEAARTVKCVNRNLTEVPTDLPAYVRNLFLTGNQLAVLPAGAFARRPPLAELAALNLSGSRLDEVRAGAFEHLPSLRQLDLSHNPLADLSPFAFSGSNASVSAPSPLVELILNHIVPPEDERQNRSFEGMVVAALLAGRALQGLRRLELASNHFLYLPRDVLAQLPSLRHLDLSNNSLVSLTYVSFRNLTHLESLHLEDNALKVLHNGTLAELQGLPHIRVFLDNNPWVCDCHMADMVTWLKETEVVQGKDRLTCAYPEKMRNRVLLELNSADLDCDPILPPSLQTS
Assay: SPR Biacore, Protein A capture
Method: The binding of the chimeric mAbs from these clones against recombinant 5T4 protein (human 5T4-his tag) was tested with Biacore using a capture method. The mAbs were captured using Protein A chip. A serial dilution of human 5T4-his tag protein was injected over captured antibody for 2-3 mins at a flow rate of 30 μl/min. The antigen was allowed to dissociate for 360-1000 s. All the experiments were carried out on a Biacore T200. Data analysis was carried out using Biacore T200 evaluation software.
Quick note: give the figure in M⁻¹ s⁻¹, leave out the unit.

binder	kon, M⁻¹ s⁻¹
286B4 chimeric antibody (antibody, V domains shown, chimeric mAb; also called 284B4-C) VH: DVQLHESGPGLVKPSQSLSLTCSVTGYSITNNYYWNWIRQFPGNNLEWMGYITYDGSNNYNPSLKNRISVTRDTSKNQFFLKLSSVTTEDTATYYCTRGGGQLRFDYWGQGTTLTVSS VL: SIVMTQTPKFLIVSAGDRVTITCKASQSVSNEVTWYQQKPGQSPKMLIYYASNRYTGVPDRFTGSGYGTDFTFTINTVQAEDLAIYFCQQDYSSPWTFGGGTKLEIK	72800
95F10 chimeric antibody (antibody, V domains shown, chimeric mAb) VH: QVQLQQSGPEVVNPGASVKISCKASGYTFTDYYMNWVKQSRGKSLEWIGDINPNNGGTNYNQKFKDKATLTVDKSSNTAYMELRSLTSENSAVYYCAKEGPPGAMDYWGQGTSVTVSS VL: NIVMTQTPKFLLVSAGDRVTITCKASQSVSNHVAWYQQKPGQSPKLLIYYVSNRYIGVPDRFTGSGYGTDFTFTISTVQAEDLAVYFCQQVYSSPFTFGGGTRLEMK	355000

Next binder, kon to be filled in.
Determine its reported kon: 119G5 chimeric antibody (antibody, V domains shown, chimeric mAb) VH: QVQLQQSGPEVVKPGASVKISCKASGYTFTDYYMNWVKQSRGKSLEWIGDINPNNGGTNYNQKFKGKATLTVDKSSSTAYMELRSLTSEDSAVYYCAKEGPPGAMDYWGQGTSVTVSS VL: NIVMTQTPKFLLVSAGDRVTITCKASQSVSNHVAWYQQKPGQSPKLLIYYVSNRSIGVPDRFTGSGYGTDFTFTISTVQAEDLAVYFCQQVYSSPFTFGGGTRLEMK
130000
